assay: Tigecycline plasma PK and % F after intraduodenal (ID) injection in anesthetized rats
Assay type: in vivo, Sprague-Dawley Rats
conditionDescription: female, Sprague-Dawley, rat, plasma, 4.8 mg/kg, pH 3.5, ID, 100 mM CA (pH 3.5), 26 mM LLC, 4.8 mg/kg (RA851)
measurementLabel: AUC(0-t) (ng·h/mL)
Please reply with the bare figure in ng·h/mL and do not write the unit itself.

Please report the measured AUC(0-t) for CN(C)c1cc(NC(=O)CNC(C)(C)C)c(O)c2c1C[C@H]1C[C@H]3[C@H](N(C)C)C(O)=C(C(N)=O)C(=O)[C@@]3(O)C(O)=C1C2=O
823

* * *

assay: Tigecycline plasma PK and % F after intraduodenal (ID) injection in anesthetized rats
Type: in vivo, Sprague-Dawley Rats
conditionDescription: female, Sprague-Dawley, rat, plasma, 4.8 mg/kg, ID, PBS, 4.8 mg/kg (RA851); read-out: Cmax, Mean
measurementLabel: Cmax
Form field: result (number plus unit)

Please report the measured Cmax for CN(C)c1cc(NC(=O)CNC(C)(C)C)c(O)c2c1C[C@H]1C[C@H]3[C@H](N(C)C)C(O)=C(C(N)=O)C(=O)[C@@]3(O)C(O)=C1C2=O
100 ng/mL

* * *

assay: Tigecycline plasma PK and % F after PO enteric-coated capsule in dogs
Type: in vivo, Beagle dogs
conditionDescription: female, beagle, dog, plasma, po, 30 mg, Tigecycline Plasma Concentration, Time (min) 4.0; PO 30 mg enteric-coated capsule with 500 mg CA and 100 mg LLC, SC430; mean
measurementLabel: concentration at 4 min

Please report the measured concentration at 4 min for CN(C)c1cc(NC(=O)CNC(C)(C)C)c(O)c2c1C[C@H]1C[C@H]3[C@H](N(C)C)C(O)=C(C(N)=O)C(=O)[C@@]3(O)C(O)=C1C2=O
36.6 ng/mL

* * *

assay: Tigecycline plasma PK and % F after intraduodenal (ID) injection in anesthetized rats
Assay type: in vivo, Sprague-Dawley Rats
conditionDescription: female, Sprague-Dawley, rat, plasma, other: intraduodenal bolus injection, 4.8 mg/kg, ID, PBS, 4.8 mg/kg (RA851); 120 min
measurementLabel: concentration at 120 min (ng/mL)
Please reply with the bare figure in ng/mL and do not write the unit itself.

Please report the measured concentration at 120 min for CN(C)c1cc(NC(=O)CNC(C)(C)C)c(O)c2c1C[C@H]1C[C@H]3[C@H](N(C)C)C(O)=C(C(N)=O)C(=O)[C@@]3(O)C(O)=C1C2=O
53

* * *

assay: Tigecycline plasma PK and % F after intraduodenal (ID) injection in anesthetized rats
Format: in vivo, Sprague-Dawley Rats
conditionDescription: female, Sprague-Dawley, rat, plasma, other: intraduodenal injection, […], RA869, ID, 26 mM LLC only, […]; read-out: % F, mean
measurementLabel: bioavailability (%)
Please reply with the bare figure in % and do not write the unit itself.

Please report the measured bioavailability for CN(C)c1cc(NC(=O)CNC(C)(C)C)c(O)c2c1C[C@H]1C[C@H]3[C@H](N(C)C)C(O)=C(C(N)=O)C(=O)[C@@]3(O)C(O)=C1C2=O
9

* * *

assay: Tigecycline plasma PK and % F after intraduodenal (ID) injection in anesthetized rats
Format: in vivo, Sprague-Dawley Rats
conditionDescription: female, Sprague-Dawley, rat, plasma, 4.8 mg/kg, pH 6, RA867, ID, 400 mM CA/26 mM LLC pH 6.0, 4.8 mg/kg
measurementLabel: AUC(0-t) (ng·h/mL)
Please reply with the bare figure in ng·h/mL and do not write the unit itself.

Please report the measured AUC(0-t) for CN(C)c1cc(NC(=O)CNC(C)(C)C)c(O)c2c1C[C@H]1C[C@H]3[C@H](N(C)C)C(O)=C(C(N)=O)C(=O)[C@@]3(O)C(O)=C1C2=O [Tigecycline]
385

* * *

assay: Tigecycline plasma PK and % F after PO enteric-coated capsule in dogs
Assay type: in vivo, Beagle dogs
conditionDescription: female, beagle, dog, plasma, po, 45 mg, Study 2 (SC430); 45 mg Formulated enteric coated capsule (500 mg citric acid, 100 mg LLC), oral, dogs, N=5; mean (% CV); sampling 24 h; read-out: AUC(0-t)
measurementLabel: AUC(0-t) (ng·h/mL)
Please reply with the bare figure in ng·h/mL and do not write the unit itself.

Please report the measured AUC(0-t) for CN(C)c1cc(NC(=O)CNC(C)(C)C)c(O)c2c1C[C@H]1C[C@H]3[C@H](N(C)C)C(O)=C(C(N)=O)C(=O)[C@@]3(O)C(O)=C1C2=O [Tigecycline]
574

* * *

assay: Tigecycline plasma PK and % F after intraduodenal (ID) injection in anesthetized rats
Format: in vivo, Sprague-Dawley Rats
conditionDescription: female, Sprague-Dawley, rat, plasma, other: intraduodenal bolus injection, 4.8 mg/kg, pH 3.5, ID, 400 mM CA (pH 3.5), 26 mM LLC, 4.8 mg/kg (RA851), parent Tigecycline peak only; 20 min
measurementLabel: concentration at 20 min (ng/mL)
Please reply with the bare figure in ng/mL and do not write the unit itself.

Please report the measured concentration at 20 min for CN(C)c1cc(NC(=O)CNC(C)(C)C)c(O)c2c1C[C@H]1C[C@H]3[C@H](N(C)C)C(O)=C(C(N)=O)C(=O)[C@@]3(O)C(O)=C1C2=O
788

* * *

assay: Tigecycline plasma PK and % F after intraduodenal (ID) injection in anesthetized rats
Type: in vivo, Sprague-Dawley Rats
conditionDescription: female, Sprague-Dawley, rat, plasma, 4.8 mg/kg, pH 3.5, ID, 100 mM CA (pH 3.5), 26 mM LLC, 4.8 mg/kg (RA851)
measurementLabel: Tmax (min)
Please reply with the bare figure in min and do not write the unit itself.

Please report the measured Tmax for CN(C)c1cc(NC(=O)CNC(C)(C)C)c(O)c2c1C[C@H]1C[C@H]3[C@H](N(C)C)C(O)=C(C(N)=O)C(=O)[C@@]3(O)C(O)=C1C2=O [Tigecycline]
20

* * *

assay: Tigecycline plasma PK after IV bolus in dogs
Format: in vivo, Beagle dogs
conditionDescription: female, beagle, dog, plasma, intravenous, 5 mg, Tigecycline Plasma Concentration, 120 min; 5 mg IV in PBS ([…]), SC431; mean
measurementLabel: concentration at 120 min (ng/mL)
Please reply with the bare figure in ng/mL and do not write the unit itself.

Please report the measured concentration at 120 min for CN(C)c1cc(NC(=O)CNC(C)(C)C)c(O)c2c1C[C@H]1C[C@H]3[C@H](N(C)C)C(O)=C(C(N)=O)C(=O)[C@@]3(O)C(O)=C1C2=O
42.3

* * *

assay: Tigecycline plasma PK after IV bolus in dogs
Assay type: in vivo, Beagle dogs
conditionDescription: female, Beagle, dog, plasma, intravenous, 1 mg, Tigecycline Plasma Concentration, 15 min; 1 mg IV in PBS (0.08 mg/kg), SC427; individual dogs
measurementLabel: concentration at 15 min (ng/mL)
Please reply with the bare figure in ng/mL and do not write the unit itself.

Please report the measured concentration at 15 min for CN(C)c1cc(NC(=O)CNC(C)(C)C)c(O)c2c1C[C@H]1C[C@H]3[C@H](N(C)C)C(O)=C(C(N)=O)C(=O)[C@@]3(O)C(O)=C1C2=O [Tigecycline]
26.5

* * *

assay: Tigecycline plasma PK and % F after PO enteric-coated capsule in dogs
Assay type: in vivo, Beagle dogs
conditionDescription: female, beagle, dog, plasma, po, 45 mg, Tigecycline Plasma Concentration, Time (min) 3.0; PO 45 mg enteric-coated capsule with 500 mg CA and 100 mg LLC, SC430; mean
measurementLabel: concentration at 3 min (ng/mL)
Please reply with the bare figure in ng/mL and do not write the unit itself.

Please report the measured concentration at 3 min for CN(C)c1cc(NC(=O)CNC(C)(C)C)c(O)c2c1C[C@H]1C[C@H]3[C@H](N(C)C)C(O)=C(C(N)=O)C(=O)[C@@]3(O)C(O)=C1C2=O
76.5

* * *

assay: Tigecycline plasma PK after IV bolus in dogs
Format: in vivo, Beagle dogs
conditionDescription: female, beagle, dog, plasma, iv, […], 5 mg IV in PBS ([…]), SC431; individual dogs; read-out: Cmax
measurementLabel: Cmax (ng/mL)
Please reply with the bare figure in ng/mL and do not write the unit itself.

Please report the measured Cmax for CN(C)c1cc(NC(=O)CNC(C)(C)C)c(O)c2c1C[C@H]1C[C@H]3[C@H](N(C)C)C(O)=C(C(N)=O)C(=O)[C@@]3(O)C(O)=C1C2=O
336

* * *

assay: Tigecycline plasma PK and % F after intraduodenal (ID) injection in anesthetized rats
Format: in vivo, Sprague-Dawley Rats
conditionDescription: female, Sprague-Dawley, rat, plasma, other: intraduodenal bolus injection, 4.8 mg/kg, pH 3.5, ID, 400 mM CA (pH 3.5), 26 mM LLC, 4.8 mg/kg (RA851), parent Tigecycline peak only; 120 min
Procedure: Animals weighed approximately 250 g at the time of testing. Rats were fasted overnight (with water available), prior to dosing. Intravenous (IV) doses were administered as a bolus injection into the left carotid […] at a dose volume of 1.6 mL/kg. […] Female rats were maintained in groups of 3 per polycarbonate (or equivalent) shoebox cage with fresh wood chip bedding at 20-22° C. under a 12 hour on/off light:dark cycle. […] Animal weights were determined post-anesthesia induction. […]
measurementLabel: concentration at 120 min (ng/mL)
Please reply with the bare figure in ng/mL and do not write the unit itself.

Please report the measured concentration at 120 min for CN(C)c1cc(NC(=O)CNC(C)(C)C)c(O)c2c1C[C@H]1C[C@H]3[C@H](N(C)C)C(O)=C(C(N)=O)C(=O)[C@@]3(O)C(O)=C1C2=O
345
